target: RBPJ-(53-474) (mouse, UniProt P31266 53-474); assay: ITC
Sequence (P31266 53-474): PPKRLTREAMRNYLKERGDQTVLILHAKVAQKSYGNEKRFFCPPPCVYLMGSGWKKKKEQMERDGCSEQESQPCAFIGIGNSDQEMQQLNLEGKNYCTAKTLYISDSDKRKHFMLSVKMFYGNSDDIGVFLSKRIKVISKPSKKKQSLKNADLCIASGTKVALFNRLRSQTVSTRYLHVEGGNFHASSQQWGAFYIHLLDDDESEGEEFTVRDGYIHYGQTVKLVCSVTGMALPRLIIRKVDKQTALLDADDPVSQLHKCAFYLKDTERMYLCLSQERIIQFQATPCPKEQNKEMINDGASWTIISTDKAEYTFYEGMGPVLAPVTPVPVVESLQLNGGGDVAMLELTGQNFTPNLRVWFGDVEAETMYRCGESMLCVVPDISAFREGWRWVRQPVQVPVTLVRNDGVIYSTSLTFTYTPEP
pKd: −log10 of the molar value.
parameter: pKd

binder | recordedMeasurement
SDLKFRVNEFGALEVITDENEMENVKKATATTTWMVPTAQ (domain or fragment, human, UniProt Q96JM7 31-70, looked up) [L3MBTL3-(31-70)] | 6.35
